# Organism: Mus musculus
# protocol-text: Compound was tested for inhibition of L1210:1565 cell growth in mouse.
# Format: functional, organism-based
readout-name: IC50 (µM)
Quick note: give the figure in µM, leave out the unit.

Look up IC50: "C#CCN(Cc1ccc2nc(C)nc(O)c2c1)c1ccc(C(=O)N[C@@H](CCC(=O)NC(C)(C)C(=O)O)C(=O)O)cc1"
70
